System tested: AMP-activated protein kinase, AMPK (Homo sapiens) (UniProt P54646+O43741+P54619+Q9UGJ0+Q9Y478+Q13131+Q9UGI9)
Experimental protocol: AMP-dependent Kinase enzyme assay. An in vitro enzyme assay that detects ADP turnover that is directly proportional to AMPK activity. This uses naive AMPK that is activated during the assay with MK-8722
Assay type: functional
Set-up: scale not given: direction of the effect not stated beside the values
Condition parameters: 30 µM
Parameter Percent Effect: see the listing below.
Value type: Percent Effect (%)

- Compound: "Cc1cccc(CN2C(=O)CO[C@@H]3CN(Cc4nccn4C)C[C@H]32)c1"
  Measure unit: "%"
  Recorded measurement: -0.86
- Compound: "c1cnc2c(c1)cc([C@H]1CCCO1)n2CCN1CCOCC1"
  Measure unit: "%"
  Recorded measurement: 14.2
- Compound: "COCCN1CCN(C(=O)C2CC=CC2)Cc2cccnc21"
  Measure unit: "%"
  Recorded measurement: 10.1
- Compound: "CC(C)CCn1[nH]c(CNc2ccccc2)nc1=O"
  Measure unit: "%"
  Recorded measurement: 4.53
- Compound: "Cn1cc(-c2csc(N3CCOCC3)n2)cn1"
  Measure unit: "%"
  Recorded measurement: -45.6
- Compound: "Cc1ccc(-c2noc(CN3CCOC(CN(C)C)C3)n2)cc1F (configuration not stated)"
  Measure unit: "%"
  Recorded measurement: -2.88
- Compound: "COCCn1ccc(NC(=O)Nc2ccc(C(N)=O)c(F)c2)n1"
  Measure unit: "%"
  Recorded measurement: 10.9
- Compound: "Cc1cc(C(=O)N2CCCC(c3noc(C)n3)C2)[nH]n1 (configuration not stated)"
  Measure unit: "%"
  Recorded measurement: -4.15
- Compound: "CCc1nc(C2CCCN2Cc2nc3ccccc3o2)no1 (configuration not stated)"
  Measure unit: "%"
  Recorded measurement: 6.37
- Compound: "Cc1cnn(CC2CCCN2C(=O)Cc2n[nH]c3ccccc23)c1 (configuration not stated)"
  Measure unit: "%"
  Recorded measurement: 14
- Compound: "COCCN1CCN(Cc2noc(C3CC3)n2)CC1C (configuration not stated)"
  Measure unit: "%"
  Recorded measurement: -4.5
- Compound: "Cn1ccc(NC(=O)Cc2cccc(F)c2)n1"
  Measure unit: "%"
  Recorded measurement: 2.46

====

System tested: Sialic acid-binding Ig-like lectin 9 (Homo sapiens) (UniProt Q9Y336)
Sequence (Q9Y336 whole entry): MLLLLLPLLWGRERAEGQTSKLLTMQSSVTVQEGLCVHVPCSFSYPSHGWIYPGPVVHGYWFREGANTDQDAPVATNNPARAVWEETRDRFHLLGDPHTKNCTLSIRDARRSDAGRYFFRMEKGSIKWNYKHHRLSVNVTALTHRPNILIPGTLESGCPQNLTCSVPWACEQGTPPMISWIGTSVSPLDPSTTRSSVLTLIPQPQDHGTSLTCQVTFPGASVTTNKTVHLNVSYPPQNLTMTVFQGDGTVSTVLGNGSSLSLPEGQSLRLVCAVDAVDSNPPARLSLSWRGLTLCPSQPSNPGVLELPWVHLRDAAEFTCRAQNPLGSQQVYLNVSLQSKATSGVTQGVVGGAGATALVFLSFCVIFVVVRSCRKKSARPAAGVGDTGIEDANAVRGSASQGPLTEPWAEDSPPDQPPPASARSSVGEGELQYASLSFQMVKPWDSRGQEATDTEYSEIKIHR
Experimental protocol: Hs-Siglec9 ALPHAscreen SOP 20170721
Parameters: scale not given: direction of the effect not stated beside the values
Condition parameters: 10 µM

- Molecule: "Cc1cc(C(=O)O)cc(S(=O)(=O)Nc2ccc3c(c2)OCO3)c1C"
  Measure unit: "%"
  Percent Effect: -9.72
- Molecule: "COCc1noc(C2(c3ccc(Br)cc3)CCOCC2)n1"
  Measure unit: "%"
  Percent Effect: -4.39
- Molecule: "CCn1cc(CN2CCCn3nc(CNC(=O)C4CCC4)cc3C2)cn1"
  Measure unit: "%"
  Percent Effect: 10.6
- Molecule: "O=C1CC(c2ccccc2)c2c(n3ccsc3nc2=O)N1 (stereo not drawn)"
  Measure unit: "%"
  Percent Effect: 1.39
- Molecule: "Cc1nn(C)cc1CCC(=O)N1CCCC(n2cncn2)C1 (stereo not drawn)"
  Measure unit: "%"
  Percent Effect: 3.45
- Molecule: "COC[C@@H]1CC[C@H]2[C@H](CCN2S(=O)(=O)c2cccc(C)c2)O1"
  Measure unit: "%"
  Percent Effect: -6.71
- Molecule: "Cc1nc(CNCC2CCCN2c2cccnn2)cs1 (stereo not drawn)"
  Measure unit: "%"
  Percent Effect: 0.202
- Molecule: "CS(=O)(=O)c1ccc(NC(=O)N2CCc3sccc3C2)cn1"
  Measure unit: "%"
  Percent Effect: -4.04
- Molecule: "Cc1ccccc1N1CCN(C(=O)c2ccc[nH]2)C(C)C1 (stereo not drawn)"
  Measure unit: "%"
  Percent Effect: 33.4
- Molecule: "Cc1nccn1C1CCCN(C(=O)COCC(F)(F)F)C1 (stereo not drawn)"
  Measure unit: "%"
  Percent Effect: 10.1
- Molecule: "COCCN1C[C@H]2[C@@H](C1)N(Cc1ccc(C)o1)CC[C@H]2OC"
  Measure unit: "%"
  Percent Effect: 7.25
- Molecule: "Cc1cn2c(n1)CCC(NC(=O)c1c[nH]c(C)n1)C2 (stereo not drawn)"
  Measure unit: "%"
  Percent Effect: 1.48
- Molecule: "COc1ncc(C2(O)CCN(Cc3ccccc3O)CC2)c(OC)n1"
  Measure unit: "%"
  Percent Effect: 0.188
- Molecule: "c1ccc(CCNC2CCc3ncnn3C2)nc1 (stereo not drawn)"
  Measure unit: "%"
  Percent Effect: -2.1
- Molecule: "COc1ccc(NC(=O)c2ccc[nH]2)c(N2CCN(C(C)=O)CC2)n1"
  Measure unit: "%"
  Percent Effect: -2.38
- Molecule: "CCO[C@H]1CO[C@@]2(CCCN(S(=O)(=O)c3ccccc3)C2)C1"
  Measure unit: "%"
  Percent Effect: -3.22
- Molecule: "Cc1cc(C)n(CC2CCCN2C(=O)c2ccc(C(N)=O)cn2)n1 (stereo not drawn)"
  Measure unit: "%"
  Percent Effect: -0.198
- Molecule: "CCN(C)c1ncnc2c1CCN(Cc1ccoc1)CC2"
  Measure unit: "%"
  Percent Effect: -3.79
- Molecule: "Cc1n[nH]c(C(=O)NCc2ccnc(OCC(F)(F)F)c2)c1Br"
  Measure unit: "%"
  Percent Effect: 1.14
- Molecule: "Cc1cnn(CC2CCCN2C(=O)c2ccc(OC(C)C)nc2)c1 (stereo not drawn)"
  Measure unit: "%"
  Percent Effect: 12.5
- Molecule: "Cn1cc(-c2csc(N3CCOCC3)n2)cn1"
  Measure unit: "%"
  Percent Effect: -2.23
- Molecule: "Cc1ccc(C(=O)N2Cc3c(CN4CCCCC4)nn(C)c3C2)cc1C"
  Measure unit: "%"
  Percent Effect: -4.75
- Molecule: "Cc1ccc(S(=O)(=O)N2CCOc3ccccc32)cc1C(=O)O"
  Measure unit: "%"
  Percent Effect: -13.7
- Molecule: "COC(=O)CCNC(=O)c1ccoc1CN1c2ccccc2CC1C (stereo not drawn)"
  Measure unit: "%"
  Percent Effect: 8.39
- Molecule: "Cc1cccc(C(=O)N2CCCN(Cc3cnn(C)c3)CC2)n1"
  Measure unit: "%"
  Percent Effect: 4.36
- Molecule: "Cc1noc(C)c1C(=O)NCc1ccc(N2CCOC(C)C2)nc1 (stereo not drawn)"
  Measure unit: "%"
  Percent Effect: -1.63
- Molecule: "Cc1nn(C)c(C)c1C1CCCN1Cc1nc(C)c2ccccc2n1 (stereo not drawn)"
  Measure unit: "%"
  Percent Effect: -0.0747
- Molecule: "Cc1ncc2c(n1)CCN(Cc1nc3ccccc3o1)C2"
  Measure unit: "%"
  Percent Effect: -1.93
- Molecule: "Cc1noc(C)c1CN1CCN(CC2CC2)c2ncccc2C1"
  Measure unit: "%"
  Percent Effect: -3.6
- Molecule: "COCC1CN(C(=O)COc2ccccc2)Cc2cn(C)nc21 (stereo not drawn)"
  Measure unit: "%"
  Percent Effect: 4.23
- Molecule: "CCN(Cc1cccc2c1OCO2)C(=O)C(C)c1cccnc1 (stereo not drawn)"
  Measure unit: "%"
  Percent Effect: 4.03
- Molecule: "Cc1ccc2oc(C(=O)N3CCCC(n4nc(C)cc4C)C3)cc2n1 (stereo not drawn)"
  Measure unit: "%"
  Percent Effect: 6.58
- Molecule: "COCCCNc1nccc(-c2c[nH][nH]c2=O)n1"
  Measure unit: "%"
  Percent Effect: -3.19
- Molecule: "COCC1CN(CC2CC2)Cc2nn(C)cc21 (stereo not drawn)"
  Measure unit: "%"
  Percent Effect: -2.43
- Molecule: "CCn1cc(CN(C)C(=O)c2cccc(CCC(C)(C)O)c2)cn1"
  Measure unit: "%"
  Percent Effect: -0.5
- Molecule: "Cc1cnn(CC(C)NCc2ccc(-n3cccn3)cc2)c1 (stereo not drawn)"
  Measure unit: "%"
  Percent Effect: -4.21
- Molecule: "COc1ccc(CN2CC[C@@H](O)[C@@H]2Cc2ccccc2)cc1"
  Measure unit: "%"
  Percent Effect: -1.98
- Molecule: "Cc1ccc(C(O)CNCCn2cccn2)cc1C (stereo not drawn)"
  Measure unit: "%"
  Percent Effect: 5.78
- Molecule: "Cc1ccc(CC(=O)N2Cc3nccn3CC(Cn3cccn3)C2)cc1 (stereo not drawn)"
  Measure unit: "%"
  Percent Effect: 14.5
- Molecule: "CC(C)c1nnc2n1CCN(CC(=O)N1CCc3ccccc3C1)C2"
  Measure unit: "%"
  Percent Effect: 1.05
- Molecule: "Cc1ccc(-c2cccc(-c3ccn(CCN4CCCC4)n3)c2)nn1"
  Measure unit: "%"
  Percent Effect: 3.72
- Molecule: "COCCN1CCCN(C(=O)NC(C)Cn2cccn2)CC1 (stereo not drawn)"
  Measure unit: "%"
  Percent Effect: -4.18
- Molecule: "NC(=O)C1CCN(C(=O)c2cccc(OCc3cscn3)c2)CC1"
  Measure unit: "%"
  Percent Effect: -4.08
- Molecule: "Cc1nc(-c2ccc(C(=O)O)cc2)cc(C2CCN(C(C)C)C2)n1 (stereo not drawn)"
  Measure unit: "%"
  Percent Effect: -4.91
- Molecule: "N#Cc1ccc(C(=O)N2CC[C@H]3[C@@H]2CCC(=O)N3c2cccnc2)cc1"
  Measure unit: "%"
  Percent Effect: -7.6
- Molecule: "Cc1ncccc1O[C@H]1CCN(C(=O)Cc2cccs2)CC[C@@H]1O"
  Measure unit: "%"
  Percent Effect: 6.84
- Molecule: "CC(=O)N1CCCn2nc(CNS(=O)(=O)c3cc(C)cs3)cc2C1"
  Measure unit: "%"
  Percent Effect: -0.0396
- Molecule: "CCc1nnc(CNCC2CCN(CC(O)c3ccccc3)CC2)o1 (stereo not drawn)"
  Measure unit: "%"
  Percent Effect: -2.88
